# test-protocol: Solubility noted for preparing the formulations
# setup-conditions: water
readout-kind: solubility

**Query** Item under review: N=C(N)NCCSSCCNC(=N)N [GED, guanidinoethyldisulfide] . Reported solubility?
**Result** ≤ 5000 µg/mL

---

# test-protocol: Solubility noted for preparing the formulations
# setup-conditions: saline, saline or isotonic
Where a name gives a salt, the structure may show the parent alone.
readout-kind: solubility

**Query** Record request: solubility value, item COc1cccc([C@]2(O)CCCC[C@H]2CN(C)C)c1 (racemic) [Tramadol, hydrochloride]
**Result** ≥ 25 mg/mL
